tested on: Mycobacterium kansasii; test: Antimycobacterial activity against Mycobacterium kansasii CNCTC My 235/80 after 14 days by microdilution method; type: functional; details: CNCTC My 235/80, 336 h
observedProperty: MIC (µM)

compound | operator | reportedValue
CCC(C)c1ccc(-n2c(=S)oc3ccc(Br)cc3c2=S)cc1 (centres undefined) | = | 4
CCCCc1ccc(-n2c(=S)oc3ccc(Cl)cc3c2=S)cc1 | = | 8
CCc1ccc(-n2c(=O)oc3ccc(Br)cc3c2=S)cc1 | = | 8
CC(C)(C)c1ccc(-n2c(=S)oc3ccc(Cl)cc3c2=S)cc1 | = | 8
CC(C)c1ccc(-n2c(=S)oc3ccc(Cl)cc3c2=S)cc1 | = | 8
CCC(C)c1ccc(-n2c(=S)oc3ccc(F)cc3c2=S)cc1 (centres undefined) | = | 2
CCCCc1ccc(-n2c(=O)oc3ccc(Cl)cc3c2=S)cc1 | = | 8
CCc1ccc(-n2c(=O)oc3ccc(Cl)cc3c2=S)cc1 | = | 8
CC(C)(C)c1ccc(-n2c(=O)oc3cc(Cl)ccc3c2=O)cc1 | = | 8
CCC(C)c1ccc(-n2c(=O)oc3ccc(F)cc3c2=O)cc1 (centres undefined) | = | 8
CCc1ccc(-n2c(=S)oc3cc(Cl)ccc3c2=S)cc1 | = | 8
CC(C)(C)c1ccc(-n2c(=O)oc3ccc(Cl)cc3c2=S)cc1 | = | 8
CCc1ccc(-n2c(=O)oc3ccc(Cl)cc3c2=O)cc1 | = | 16
CC(C)c1ccc(-n2c(=S)oc3cc(Cl)ccc3c2=S)cc1 | = | 4
Cc1ccc2c(=S)n(-c3ccc(C(C)C)cc3)c(=O)oc2c1 | = | 2
Cc1ccc2c(=S)n(-c3ccc(C(C)(C)C)cc3)c(=S)oc2c1 | = | 2
CCc1ccc(-n2c(=O)oc3ccc(Br)cc3c2=O)cc1 | = | 8
CC(C)c1ccc(-n2c(=O)oc3cc(Cl)ccc3c2=S)cc1 | = | 8
CC(C)c1ccc(-n2c(=O)oc3cc(Cl)ccc3c2=O)cc1 | = | 8
CC(C)c1ccc(-n2c(=S)oc3ccc(F)cc3c2=S)cc1 | = | 4
Cc1ccc2c(=S)n(-c3ccc(C(C)C)cc3)c(=S)oc2c1 | = | 2
Cc1ccc(-n2c(=S)oc3ccc(Br)cc3c2=S)cc1 | = | 4
CC(C)c1ccc(-n2c(=O)oc3ccc(Br)cc3c2=S)cc1 | = | 32
NNC(=O)c1ccncc1 [ISONIAZID] | > | 250

###

Recorded MIC by entry
tested on: Mycobacterium kansasii; assay: Antimycobacterial activity against Mycobacterium kansasii CNCTC My 235/80 after 14 days by microdilution method; assay type: functional; details: CNCTC My 235/80, 336 h
observedProperty: MIC (µM)

compound | observedProperty | reportedValue
CCC(C)c1ccc(-n2c(=S)oc3cc(Cl)ccc3c2=S)cc1 (configuration not stated) | MIC | 4
CC(C)c1ccc(-n2c(=O)oc3ccc(Cl)cc3c2=S)cc1 | MIC | 8
CCC(C)c1ccc(-n2c(=S)oc3cc(C)ccc3c2=S)cc1 (configuration not stated) | MIC | 2
CCc1ccc(-n2c(=O)oc3cc(Cl)ccc3c2=S)cc1 | MIC | 8
CC(C)c1ccc(-n2c(=O)oc3ccc(Br)cc3c2=O)cc1 | MIC | 8
CCC(C)c1ccc(-n2c(=O)oc3ccc(Br)cc3c2=S)cc1 (configuration not stated) | MIC | 4
Cc1ccc(-n2c(=O)oc3ccc(Br)cc3c2=S)cc1 | MIC | 2

All figures here come from ChEMBL document CHEMBL1287747.
